Reported MTC values for a set of compounds
- Tested on: Mus musculus
- EXPERIMENT DESCRIPTION: Neurotoxicity in ip dosed Mus musculus (mouse) assessed as minimal motor impairment after 4 hr by rotarod test
- Assay type: toxicity, organism-based
- MEASUREMENT CONTEXT: in vivo
OBSERVATION TYPE: MTC (mg/kg)

- COMPOUND: "O=C(NN1C(=O)C(Cl)C1c1ccc(O)cc1)c1ccncc1 (centres undefined)"
  UNITS SYMBOL: "mg/kg"
  ASSAY RESULT: 300
- COMPOUND: "O=C(NN1C(=O)C(Cl)C1c1ccc([N+](=O)[O-])cc1)c1ccncc1 (centres undefined)"
  UNITS SYMBOL: "mg/kg"
  ASSAY RESULT: 300
- COMPOUND: "O=C1NC(=O)C(c2ccccc2)(c2ccccc2)N1"
  UNITS SYMBOL: "mg/kg"
  ASSAY RESULT: 100
- COMPOUND: "NC(=O)N1c2ccccc2C=Cc2ccccc21 [CARBAMAZEPINE]"
  UNITS SYMBOL: "mg/kg"
  ASSAY RESULT: 30
